System: MDA-MB-468 breast
Test: NCI-60 one-dose screen, 48 h (100 = growth as untreated, 0 = no growth, -100 = all killed)
Conditions: 10 µM unless noted
About 83,000 compounds went through this panel and 20% of them were active in at least one assay; those are over-represented in the sample as a whole.
attribute_measured: growth (%)
Write the answer as a number in %, unit excluded.

Form field growth, entry N#Cc1c(-c2ccc(Cl)cc2)c(C#N)c2c(C#N)c(N)nn2c1N : 80.1

Form: compound = N#Cc1cccc(C2C3=C(COC3=O)N(CCO)c3cc4c(cc32)OCO4)c1 (configuration not stated) ; growth = 21

Value of growth reported for the compound FC(F)(F)c1cccc(Nc2ccccc2)c1 is 92.7

GET /value?item= CCOC(=O)c1cccc(NC2=C(Cl)C(=O)c3nc(C)ccc3C2=O)c1 &field=growth returns -33.4

Entry under test: Cc1c(C(=O)/C=C/c2csc3ccccc23)[n+](=O)c2ccccc2n1[O-] . Its growth was -16.5

# growth (compound: N#Cc1ccc(-c2ccc3c(c2)NC(=O)/C3=C\c2ccc[nH]2)cc1 ) is -18.2

Measured growth of N#C/C(=C\c1ccc(-c2cccc(C(F)(F)F)c2)o1)c1ccccc1 : 23.4

###

System: MDA-MB-468 breast
Experiment: NCI-60 one-dose screen, 48 h (100 = growth as untreated, 0 = no growth, -100 = all killed)
Details: 10 µM unless noted
Compounds without any hit were thinned out: in the full panel of roughly 83,000, 20% have a hit.
attribute_measured: growth (%)
Give a bare numeral; the unit % is implied.

Given item COc1ccc(S(=O)(=O)NCCNc2nccc(-c3c(-c4cccc(N)c4)nc4sccn34)n2)cc1 , the value recorded as its growth is 88.5

Quick note, growth for Nc1ccc(C(=O)/C=C/c2ccccc2)cc1 landed at 87.4

Query O=C(CO[N+](=O)[O-])Nc1ccc(C(=O)/C=C/c2ccc3c(c2)OCO3)cc1 yields growth of 91.9

###

System: MDA-MB-468 breast
Test: NCI-60 one-dose screen, 48 h
Details: 10 µM unless noted
About 83,000 compounds went through this panel and 20% of them were active in at least one assay; those are over-represented in the sample as a whole. Calls of active or inactive are those of the source. The calls were made as follows: active = growth percent below 10; inactive = the rest.
Respond only with the outcome that fits, drawn from active, inactive

Task: Please share the test call associated with O=C(c1ccccc1O)N1CCCC1 .
Output: inactive

Task: Record lookup: outcome of this test for COc1cc(C2CC(=O)c3ccccc3N2)cc(OC)c1OC (configuration not stated) ?
Output: inactive

Task: What did this assay record as the result for Cn1/c(=N/NC(N)=S)ccc2ccccc21 ?
Output: inactive

Task: Would you mind telling me which call this test gave CCCCCCN(CCCCCC)CCCNc1nccc2ccccc12 ?
Output: active

Task: Which outcome was entered for the compound O=C(Nc1ccc(I)cc1F)c1cc(I)ccc1O in this test?
Output: active

Task: Called result for O=C(Nc1ccncc1)C(=O)c1cn(S(=O)(=O)c2ccc(Br)cc2)c2ccccc12
Output: active

Task: I'd appreciate the recorded outcome for O=Cc1ccc([N+](=O)[O-])s1 from this test.
Output: inactive

###

Tested on: MDA-MB-468 breast
Assay: NCI-60 one-dose screen, 48 h (100 = growth as untreated, 0 = no growth, -100 = all killed)
Details: 10 µM unless noted
The panel holds about 83,000 compounds, 20% with a hit somewhere; the sample as a whole holds those more often.
I'd appreciate it if you could supply growth values for the items below.
Kindly provide the numeric value in % only, without the unit symbol.

Briefly, growth measured for O=C(N/N=C/c1ccc(F)cc1)c1[nH]c2ccc(I)cc2c1-c1ccccc1 : 17.8

# growth (compound: C=C1C(=O)O[C@H]2[C@H]1CC/C(CNC(=O)/C=C/c1cccc(OC)c1)=C\CC[C@@]1(C)O[C@@H]21 ) is -36.5

Reported growth for Cc1ccc(NCCN(C)CC(C)O)c2c(=O)c3ccccc3sc12 (stereo not given) was 13.5

Kindly note the recorded growth for CN1CCN(c2ccc(C(=O)Nc3cccc(-c4cn(-c5ccc(S(N)(=O)=O)cc5)nn4)c3)cc2C(F)(F)F)CC1 , which is 68.9

Input CC[C@@H](C)/C=C(C)/C=C/C(O)=C1\C(=O)N[C@@H](Cc2ccc(OC(=O)[C@@](OC)(c3ccccc3)C(F)(F)F)cc2)C1=O . Output growth: 110

Entry COc1ccc2cc(-c3cnc4nonc4n3)ccc2c1 , growth reported as -2.09

Entry under test: C[PH+](c1nc2ccccc2nc1[PH+](C)C(C)(C)C)C(C)(C)C.C[PH+](c1nc2ccccc2nc1[PH+](C)C(C)(C)C)C(C)(C)C.[Au+].[Cl-] (stereo not given) . Its growth was -80.7

The recorded growth for entry O=C1Nc2ccccc2/C1=C\c1ccccc1O equals 67.4

# compound C=C1C(=O)O[C@H]2[C@H]1CC/C(Cn1cc(-c3ccc(OC)cc3)nn1)=C\CC[C@@]1(C)O[C@@H]21 ; its growth = -42.8

So for c1ccc(C2=NN[C@H](c3cn(-c4ccccc4)nc3-c3ccccc3)C2)cc1 , the logged growth turned out to be 28.2

The measured growth associated with COc1cc(F)c(/C=C/c2cc(/C=C/c3cc(OC)c(OC)cc3F)n(-c3cc(F)cc(F)c3)n2)cc1OC reads -37.6

The reported growth of the compound O=C(Nc1ccccc1Cl)Oc1ccc2ccccc2c1 was 104

Noted for Cc1nn(-c2ccccc2)c2c1C(c1ccc([N+](=O)[O-])cc1)C(C#N)=C(N)O2 (stereo not given) : its growth reads 108

Consider CCC(C)[C@H](NC(C)=O)C(=O)N[C@@H](CCCNC(=N)N)C(=O)N[C@@H](CCCCN)C(=O)N[C@@H](CC1CCC(O)CC1)C(=O)NC(C(=O)N[C@@H](CCSC)C(=O)N[C@@H](CCCNC(=N)N)C(=O)N[C@@]1(C)CCC/C=C\CCC[C@@](C)(C(=O)NC(C(=O)N[C@@H](CCC(=O)O)C(=O)N[C@@H](CC(C)C)C(=O)N[C@H](C(=O)N[C@@H](CCC(=O)O)C(N)=O)C(C)C)[C@@H](C)O)NC(=O)[C@H](CCC(N)=O)NC(=O)[C@H](CC(C)C)NC(=O)[C@H](CC(C)C)NC1=O)[C@@H](C)O (stereo not given in full) . Its measured growth is 99.7

compound O=C1C=C(Nc2ccc([N+](=O)[O-])cc2)c2ccccc2C1=O , growth observed: 41.1

The recorded growth for entry C=CCn1c(SCC(=O)Nc2ccc(/C(C)=N\O)cc2)nnc1-c1cc(-c2ccccc2)nc2ccccc12 equals 73

O=C(/C=C/c1ccccc1)c1ccccc1O has a reported growth of 64.4

Lab book: growth of CN1C(=O)N(C)C2C1NN=c1s/c(=C\c3ccccn3)c(=O)n12 (stereo not given) noted as 88.8

Kindly note the recorded growth for COc1ccc2nc(C)cc(Nc3ccc(Cl)cc3)c2c1 , which is 87.2

# growth (compound: CC(=O)N1N=C(c2cc3ccccc3oc2=O)CC1c1cn(-c2ccccc2)nc1-c1ccc(C)cc1 (stereo not given) ) is 94.6

The recorded growth for entry COCCn1cc(-c2nc(-c3cc4cccnc4n3CCOC)cs2)c2cc(OC)ccc21 equals -18.4

Per the records, this compound ( CC(C)(C)[Si](C)(C)OC1[C@@H](CNC(=O)NC(=O)CCl)O[C@@H](n2cnc3c(N)ncnc32)[C@H]1O[Si](C)(C)C(C)(C)C (stereo not given in full) ) has growth equal to -2.45

The compound listed as CC1=NC2=NN3C(=NN2C(c2ccccc2)=C1)N=NC(c1ccc(Br)cc1)=C3c1ccc(Br)cc1 shows growth equal to 105

Please fill in: growth reported for COc1ccc(-c2cc3c(C)nc(N)nc3n(C3CCC(OCCO)CC3)c2=O)cn1 (stereo not given) = -50

growth reading for O=C(Nc1ccc(-n2ccc3c(NC(=O)c4ccccc4)ncnc32)cc1)Nc1ccc(Cl)c(C(F)(F)F)c1 : -56.3

Query COc1ccc(-c2nc(SCC(=O)Nc3ccc(C(C)=O)cc3)[nH]c(=O)c2C#N)cc1 yields growth of 105

The compound listed as N#Cc1c(-c2cccs2)cc(-c2cnccn2)nc1SCC(=O)N/N=C/c1ccc(Cl)cc1 has a reported growth of 108

Documented growth of CSc1nc(=O)n(Cc2ccc(F)cc2)c(=O)n1Cc1ccc(C)cc1 : 112

growth for C#C[C@]1(O)CC[C@H]2[C@@H]3CC=C4c5nc(Nc6ccccn6)sc5CC[C@]4(C)[C@H]3CC[C@@]21C is 14.2

Summary for this compound, N=C(N)N=Nc1ccc(NN=C(N)N)cc1 : growth is 103

Values from PubChem BioAssay (NCI)
